B1: MCOLN1 (parent)
chain: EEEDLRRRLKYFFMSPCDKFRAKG

# Variants of: B1
# Measurement description: protein stability index of a GFP-peptide fusion (GPS, HEK-293T) (PSI 1-6); higher = more stable;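 also: lentivirally expressed fusions sorted by FACS into six bins by GFP to DsRed ratio, PSI derived from sequencing read proportions per bin multiplied by bin number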
# Test conditions: c terminus: a fixed tail appended
protein stability index values, listed per item
Measurement label: protein stability index

| Mutation label | Measurement label | Reported measurement |
| --- | --- | --- |
| F13W | protein stability index | 3 |
| R21N | protein stability index | 3.01 |
| R8G | protein stability index | 2.97 |
| L5F | protein stability index | 3.09 |
